# target: Thyroid hormone receptor beta (Homo sapiens) (UniProt P10828)
# Sequence (P10828 whole entry, looked up): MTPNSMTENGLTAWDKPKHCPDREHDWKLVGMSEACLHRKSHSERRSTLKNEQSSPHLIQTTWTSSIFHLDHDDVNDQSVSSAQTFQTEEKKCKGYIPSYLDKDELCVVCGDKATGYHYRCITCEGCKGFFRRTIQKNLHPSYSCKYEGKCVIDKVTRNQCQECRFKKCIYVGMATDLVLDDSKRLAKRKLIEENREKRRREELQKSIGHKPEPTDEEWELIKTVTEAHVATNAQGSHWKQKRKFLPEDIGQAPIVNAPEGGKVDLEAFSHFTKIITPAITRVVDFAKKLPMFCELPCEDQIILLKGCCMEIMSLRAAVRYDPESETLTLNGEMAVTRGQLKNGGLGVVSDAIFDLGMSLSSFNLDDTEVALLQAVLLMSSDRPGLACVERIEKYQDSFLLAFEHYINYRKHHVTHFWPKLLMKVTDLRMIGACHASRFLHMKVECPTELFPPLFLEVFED
# assay protocol: qHTS for Inhibitors of the Interaction of Thyroid Hormone Receptor and Steroid Receptor Coregulator 2; note: nearly all actives have a fitted effect of over 50% in size
# condition set: TRbeta-SRC2 peptide binding, fluorescence polarization, receptor liganded with 1 µM T3; series mostly up to 106 µM
About 180 (0.064%) of roughly 280,000 compounds were called active. Many of the other results were omitted from the sample, so actives are more common in it than they were.
endpoint label: outcome

Please review the following examples before continuing.
O=C(Nc1c(C(=O)N2CCN(c3ccc(F)cc3)CC2)oc2ccccc12)c1ccco1 :: inactive
CC(=O)Nc1ccc(NC(=O)c2cc3sccc3n2Cc2ccc(F)cc2)cc1 :: inactive
CCOC(=O)Cn1c(=O)n(-c2ccccc2OC)c2nc(-c3cccc(F)c3)nc(C(N)=O)c21 :: inactive
Cc1c(C)n(Cc2ccc(Cl)cc2)c2ccc(C(=O)NCCc3ccc(S(N)(=O)=O)cc3)cc12 :: inactive

For the next question, use this compound.
Note to self: outcome recorded for O=C(C1CCCN(S(=O)(=O)c2cccc3nonc23)C1)N1CCN(c2ccccc2F)CC1 (stereo not given) was inactive

###

# target: Thyroid hormone receptor beta (Homo sapiens)
# assay protocol: qHTS for Inhibitors of the Interaction of Thyroid Hormone Receptor and Steroid Receptor Coregulator 2; note: nearly all actives have a fitted effect of over 50% in size
# condition set: TRbeta-SRC2 peptide binding, fluorescence polarization, receptor liganded with 1 µM T3; series mostly up to 106 µM
Screen size: about 280,000 compounds; about 180 (0.064%) were called active. Calls follow the shape of the dose curve; as a rule, active = well fitted inhibition curve with a large enough effect; inconclusive = small, poorly fitted or top-dose-only effect, or effect the other way; inactive = flat fitted curve, though single readings scatter. Shown is part of a subset that was picked to be rich in actives.
One label from this list, please: yes (1) for active, no (0) for inactive

Test call for this molecule, please: COc1ccc(CCNC(=O)c2nn(C)c3c2CSc2ccccc2-3)cc1OC
no (0)

Could you please tell me the result logged for COc1ccc(NS(=O)(=O)c2cc3c4c(c2)CC(=O)N4CCC3)cc1Cl in this assay?
no (0)

Test call for this molecule, please: CN1CCN(c2oc(-c3ccc(COc4ccc(Cl)cc4)o3)nc2C#N)CC1
no (0)

Please state the recorded outcome for this molecule: CCOCCCNC(=O)c1ccc2nc(CCc3ccccc3)oc2c1
no (0)

Please indicate how the test categorized COc1ccc2c(c1)Cc1sc(NC(=O)c3ccccc3Br)nc1-2 .
no (0)

Hey, what did the test say about Oc1ccc(N=Cc2sc3ccccc3c2Cl)cc1 ?
yes (1)

Assay result, entry Cc1cccc(N2CCN(C3=C(c4ccccc4)C(=O)c4ccccc43)CC2)c1C — outcome?
no (0)

Each molecule tested received a call. Report the one for COc1ccc(CNC(=O)c2ccc(NC(=O)N3CC4CCCN4c4ccccc43)cc2)cc1 (stereo not given) .
no (0)

Tell me the assay call for O=C(NC1CC(=O)N(c2ccc(F)cc2)C1)c1ccc(S(=O)(=O)N2CCCC2)cc1 (stereo not given) please.
no (0)

What is the recorded call for this molecule in the test? Cc1ccc(NC(=O)CN2C(=O)C(c3ccc(F)cc3)=NC23CCCCCC3)c(C)c1
no (0)

###

# target: Thyroid hormone receptor beta (Homo sapiens)
# assay protocol: qHTS for Inhibitors of the Interaction of Thyroid Hormone Receptor and Steroid Receptor Coregulator 2; note: nearly all actives have a fitted effect of over 50% in size
# condition set: TRbeta-SRC2 peptide binding, fluorescence polarization, receptor liganded with 1 µM T3; series mostly up to 106 µM
The whole screen tested about 280,000 compounds, of which about 180 (0.064%) were called active. Calls come from the whole dose curve; as a rule, active = well fitted inhibition curve with a large enough effect; inconclusive = small, poorly fitted or top-dose-only effect, or effect the other way; inactive = flat fitted curve, though single readings scatter. Many of the other results were omitted from the sample, so actives are more common in it than they were.
Form entry, call: pick from active, inactive

Test call, this compound: Cc1ccc(O)c(NC(=O)CCS(=O)(=O)c2nc(-c3ccc4c(c3)OCO4)cc(C(F)(F)F)n2)c1
inactive
